- Measurement Context: in ethanol, 298.15 K
Reported Metric: solubility (mole fraction)
No unit in the answer, only the number.

Which value of solubility (mole fraction) has been reported for CC(=O)Nc1ccc(CC(=O)O)cc1 in the records?
0.0121

###

- Measurement Context: in n-propanol, 298.15 K
Reported Metric: solubility (mole fraction)
Give the figure by itself; no unit, no explanation.

What does the record list as solubility (mole fraction) for CC(=O)Nc1ccc(CC(=O)O)cc1 ?
0.0105

###

- Measurement Context: in ethyl acetate, 298.15 K
Reported Metric: solubility (mole fraction)

What measured solubility (mole fraction) goes with CC(=O)Nc1ccc(CC(=O)O)cc1 ?
0.00156
